test: basal HepG2 mitochondrial membrane potential changes, profiling panel, cell-based, JC-1 fluorescence, 24 h, 100 nL compound (AID 1167); conditions: higher = more signal; further: test concentration not given here
Experimental Readout: z-score
// keep it numeric: no unit symbol after the value

Some molecules with known z-score results, for comparison:
CCN1C(=O)[C@H]2[C@H]3[C@H](O)[C@H](O)CC(=NO[C@@H](C)c4cc(-c5c(C)cc(C)cc5C)no4)[C@@H]3CC[C@H]2C1=O	-1.38
CC(C)CON=C1C[C@@H](O)[C@@H](O)[C@@H]2[C@@H]3C(=O)N(C(C)(C)C)C(=O)[C@@H]3CC[C@@H]12	-0.0218
COc1ccc2c(c1)O[C@@H](c1cccc(C(F)(F)F)c1)[C@H](O)C2=O	-1.25
CC(CCC(=O)OC[C@H]1O[C@H](C#Cc2ccccc2)C=C[C@@H]1Oc1ccc(C)cc1)=NOC(C)CN1CCCc2nc(C)c(C)cc21 (stereo not given in full)	0.542
OC[C@H]1O[C@H](C#Cc2ccccc2)C=C[C@@H]1O	0.552
CCCNC(=O)OC[C@H]1O[C@H](CCON=C2c3cc(OC)ccc3O[C@H](c3cccc(OC)c3)[C@H]2O)C=C[C@@H]1Oc1ccc(OC)cc1	1.38
CO[C@H]1COC(=O)[C@H](CCSC)NC(=O)CC=C[C@@H](C)[C@H](OC)COC(=O)[C@@H](OCc2ccccc2)C=C[C@@H]1C	0.247
CCN1C(=O)[C@H]2[C@H]3[C@H](O)[C@H](O)CC(=NO[C@H](C)c4cn([C@H](CO)Cc5ccccc5)nn4)[C@@H]3CC[C@H]2C1=O	-0.471

Lookup: Which z-score is reported for this molecule? C=CC[C@@H]1C=C[C@H](Oc2ccc(C)cc2)[C@@H](COC(=O)NCc2cccc3ccccc23)O1
Found: 0.294

Lookup: // query z-score value for entry COC(=O)[C@H](C)NC(=O)CCC1CC(OC(=O)NCCc2ccc(F)cc2)CC2(CCCC(COC(=O)NCc3ccccc3)O2)O1 (stereo not given in full)
Found: 0.995

Lookup: Fill in: z-score of CCN1C(=O)[C@H]2[C@H]3[C@H](O)[C@H](O)CC(=NOCC(C)C)[C@H]3CC[C@H]2C1=O is ___
Found: -0.584

Lookup: // z-score lookup, key: CSCC[C@@H]1NC(=O)CC=C[C@@H](C)COC(=O)[C@H](C)COC1=O
Found: 1.16

Lookup: Look up z-score for this molecule: CCN1C(=O)[C@H]2[C@H]3[C@H](O)[C@H](O)CC(=NOCC[C@@H]4C=C[C@H](OC(C)=O)[C@@H](COC(C)=O)O4)[C@@H]3CC[C@H]2C1=O
Found: -0.301

Lookup: Which value of z-score has been reported for CCCC[C@H]1CN2[C@@H](CC[C@@H](C)[C@@H]2c2ccc(Br)cc2)C(=O)O1 in the records?
Found: 0.13

Lookup: # lookup: z-score of CO[C@@H]1C=CCC(=O)N[C@@H](C)C(=O)OC[C@@H](NS(=O)(=O)c2ccc(C)cc2)[C@H](C)C=CCC(=O)OC[C@H]1C
Found: 0.0105

----------
target: Alpha-bungarotoxin (Bungarus multicinctus); assay: alpha-bungarotoxin binders on microarray, profiling panel, artefact control for SMM control protein annotation, biochemical, small-molecule microarray, Alexa647 label, 635/667 nm fluorescence (AID 1117); details: alpha-BTX-A647 binding fluorescence, higher = more signal
Experimental Readout: composite z-score
// no unit, no text: just the number

Lookup: Entry under review: CC(CCN1CCCCc2nc(C)c(C)cc21)=NO[C@@H](C)c1cc(-c2c(C)cc(C)cc2C)no1 . Reported composite z-score?
Found: -0.664
